target: hMC5-R (Homo sapiens); construct: expressed in transfected cells; experiment: Competitive inhibition binding assay, 125I-NDP-α-MSH, hMC5-R; details: 1 μM test compound; 0.4 nM 125I-NDP-α-MSH; hMC5-R membranes; mean of triplicates; results less than 0% reported as 0%; read-out: Inhibition at 1 μM MC5-R
Non-standard residues stand in square brackets, D forms with d. Residues, ends and D or L forms follow the SMILES beside them. *: point of attachment. Hyp = O=C(O)[C@@H]1C[C@@H](O)CN1; Nle = CCCC[C@H](N)C(=O)O; NH(CH2)3NH2 = NCCCN*; Bn = c1ccc(C*)cc1
Entries annotated with measured inhibition at 1 µM
Lab book: enter the figure in %, no units written.

Here are 2 compounds together with their reported answers.
| compound | unit | test_value |
| --- | --- | --- |
| [2H]N[C@@H](Cc1cnc[nH]1)C(=O)N[C@@H](Cc1ccccc1)C(=O)N1C[C@H](OCc2ccccc2)C[C@H]1C(=O)NCCCCCN [Example 26] | % | 7 |
| [2H]N[C@@H](Cc1cnc[nH]1)C(=O)N[C@@H](Cc1ccccc1)C(=O)N1C[C@H](OCc2ccccc2)C[C@H]1C(N)=O [Example 28, His-D-Phe-Hyp(Bzl)-NH2] | % | 5 |

Let's switch to this compound now.
Exercise: For the compound shown here, CCCC[C@H](N)C(=O)N[C@@H](C)C(=O)N[C@@H](Cc1cnc[nH]1)C(=O)N[C@H](Cc1ccccc1)C(=O)N1C[C@H](OCc2ccccc2)C[C@H]1C(=O)NCCCN [Example 10] (H-[Nle]AH[dF][Hyp](Bn)-{NH(CH2)3NH2}) , give the reported inhibition at 1 µM.
Solution: 7

----------
Entries annotated with measured inhibition at 1 µM
target: hMC5-R (Homo sapiens, UniProt P33032); construct: expressed in transfected cells; assay: Competitive inhibition binding assay, 125I-NDP-α-MSH, hMC5-R; settings: 1 μM test compound; 0.4 nM 125I-NDP-α-MSH; hMC5-R membranes; mean of triplicates; results less than 0% reported as 0%; read-out: Inhibition at 1 μM MC5-R
Non-standard residues stand in square brackets, D forms with d. Residues, ends and D or L forms follow the SMILES beside them. *: point of attachment. Hyp = O=C(O)[C@@H]1C[C@@H](O)CN1; Nle = CCCC[C@H](N)C(=O)O; NH(CH2)3NH2 = NCCCN*; Bn = c1ccc(C*)cc1
Lab book: enter the figure in %, no units written.

| compound | test_value |
| --- | --- |
| NCCCNC(=O)[C@@H]1C[C@@H](OCc2ccccc2)CN1C(=O)[C@@H](Cc1ccc(Cl)cc1)NC(=O)[C@H]1Cc2ccccc2CN1 [Example 22] | 38 |
| [2H]N[C@@H](Cc1cnc[nH]1)C(=O)N[C@@H](Cc1ccccc1)C(=O)N1C[C@H](OCc2ccccc2)C[C@H]1C(=O)NCCCCCCN [Example 27] | 8 |

Exercise: # get_value(readout= inhibition at 1 µM, system= hMC5-R (Homo sapiens, UniProt P33032)) for CCCC[C@H](NC(C)=O)C(=O)N[C@@H](C)C(=O)N[C@@H](Cc1cnc[nH]1)C(=O)N[C@H](Cc1ccccc1)C(=O)N1C[C@H](OCc2ccccc2)C[C@H]1C(=O)NCCCN [Example 9] (Ac-[Nle]AH[dF][Hyp](Bn)-{NH(CH2)3NH2})
Solution: 25

----------
molecular target: MC5-R (HEK-293 cells expressing MC5-R) (Homo sapiens); construct: expressed in transfected cells; host or cells: HEK-293; test: Ki determination by the method of Example 3, MC5-R; type: cell-based; conditions: value in nM, read-out: Ki (nM) MC5-R
Sequence (P33032 whole entry): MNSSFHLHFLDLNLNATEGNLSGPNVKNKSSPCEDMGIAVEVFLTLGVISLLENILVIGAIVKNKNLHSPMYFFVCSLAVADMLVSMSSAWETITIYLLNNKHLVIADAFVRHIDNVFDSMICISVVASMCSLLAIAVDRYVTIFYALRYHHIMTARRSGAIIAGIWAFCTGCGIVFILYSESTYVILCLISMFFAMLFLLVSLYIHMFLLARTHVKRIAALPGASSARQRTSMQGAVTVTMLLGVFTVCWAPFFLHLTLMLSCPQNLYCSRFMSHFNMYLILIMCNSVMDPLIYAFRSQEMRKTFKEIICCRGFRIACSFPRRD
endpoint_name: Ki
Kindly format the answer as number then unit.

Exercise: For the compound shown here, NCCCNC(=O)[C@@H]1C[C@@H](OCc2ccccc2)CN1C(=O)[C@@H](Cc1ccc(Cl)cc1)NC(=O)[C@@H]1Cc2ccccc2CN1 [Example 21] , give the reported Ki.
Solution: 1150 nM

----------
biological target: MC1-R (B-16 mouse melanoma cells) (Mus musculus, UniProt Q01727); construct: membranes prepared from hMC3-R, hMC4-R, hMC5-R, and B-16 mouse melanoma cells (containing MC1-R); endogenous in cells; host or cells: B-16 mouse melanoma cells (membranes); assay: Competitive inhibition binding assay, 125I-NDP-α-MSH, MC1-R; conditions: 1 μM test compound; 0.4 nM 125I-NDP-α-MSH; B-16 mouse melanoma cell membranes; mean of triplicates; results less than 0% reported as 0%
Sequence (Q01727 whole entry): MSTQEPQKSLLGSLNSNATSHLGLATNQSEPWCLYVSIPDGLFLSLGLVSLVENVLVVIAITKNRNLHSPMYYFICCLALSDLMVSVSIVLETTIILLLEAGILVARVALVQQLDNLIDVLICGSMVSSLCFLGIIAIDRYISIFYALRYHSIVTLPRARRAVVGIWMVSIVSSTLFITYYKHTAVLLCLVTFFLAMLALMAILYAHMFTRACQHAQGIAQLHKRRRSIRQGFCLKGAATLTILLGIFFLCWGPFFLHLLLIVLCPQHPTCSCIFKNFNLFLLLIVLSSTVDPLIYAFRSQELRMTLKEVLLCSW
Entries annotated with measured inhibition at 1 µM
Lab book: enter the figure in %, no units written.

Here are 2 compounds together with their reported answers.
| compound | endpoint_name | test_value |
| --- | --- | --- |
| [2H]N[C@@H](Cc1cnc[nH]1)C(=O)N[C@@H](Cc1ccccc1)C(=O)N1C[C@H](OCc2ccccc2)C[C@H]1C(N)=O [Example 28, His-D-Phe-Hyp(Bzl)-NH2] | inhibition at 1 µM | 0 |
| NCCCNC(=O)[C@@H]1C[C@@H](OCc2ccccc2)CN1C(=O)[C@@H](Cc1ccc(Cl)cc1)NC(=O)[C@H]1Cc2ccccc2CN1 [Example 22] | inhibition at 1 µM | 29 |

Let's switch to this compound now.
Exercise: For the compound shown here, [2H]N[C@@H](Cc1cnc[nH]1)C(=O)N[C@@H](Cc1ccccc1)C(=O)N1C[C@H](OCc2ccccc2)C[C@H]1C(=O)NCCCCN [Example 25] , give the reported inhibition at 1 µM.
Solution: 50

----------
Entries annotated with measured Inhibition at 1 μM MC1-R
target: MC1-R (B-16 mouse melanoma cells) (Mus musculus, UniProt Q01727); construct: membranes prepared from hMC3-R, hMC4-R, hMC5-R, and B-16 mouse melanoma cells (containing MC1-R); endogenous in cells; host or cells: B-16 mouse melanoma cells (membranes); test: Competitive inhibition binding assay, 125I-NDP-α-MSH, MC1-R; details: 1 μM test compound; 0.4 nM 125I-NDP-α-MSH; B-16 mouse melanoma cell membranes; mean of triplicates; results less than 0% reported as 0%
Lab book: enter the figure in %, no units written.

Here are 4 molecules together with their reported answers.
| molecule | test_system | Inhibition at 1 μM MC1-R, % |
| --- | --- | --- |
| CCCCCCC(=O)N[C@@H](Cc1cnc[nH]1)C(=O)N[C@H](Cc1ccccc1)C(=O)N1C[C@H](OCc2ccccc2)C[C@H]1C(=O)NCCCNC(=N)N | MC1-R (B-16 mouse melanoma cells) (Mus musculus, UniProt Q01727) | 92 |
| C[C@@H]1CN(C(=O)[C@H](N)Cc2ccc(Cl)cc2)[C@@H](CCCNC(=N)N)CN1CCc1ccc2ccccc2c1 | MC1-R (B-16 mouse melanoma cells) (Mus musculus, UniProt Q01727) | 85 |
| [2H]N[C@@H](Cc1ccccc1)C(=O)N1C2CC[C@H](COc3ccccc3)N2C(=O)[C@@H]1CCCCN (some centres unmarked) | MC1-R (B-16 mouse melanoma cells) (Mus musculus, UniProt Q01727) | 0 |
| [2H]N[C@@H](Cc1ccccc1)C(=O)N1C2CC[C@H](COc3ccc4ccccc4c3)N2C(=O)[C@@H]1CCCCN (some centres unmarked) | MC1-R (B-16 mouse melanoma cells) (Mus musculus, UniProt Q01727) | 0 |

Let's switch to this molecule now.
Exercise: # get_value(readout= Inhibition at 1 μM MC1-R, system= MC1-R (B-16 mouse melanoma cells) (Mus musculus, UniProt Q01727)) for [2H]N[C@@H](Cc1cnc[nH]1)C(=O)N[C@@H](Cc1ccccc1)C(=O)N1C2CC[C@H](COc3ccc4ccccc4c3)N2C(=O)[C@@H]1CCCCN (some centres unmarked)
Solution: 18

----------
target: hMC5-R (Homo sapiens, UniProt P33032); construct: expressed in transfected cells; assay: Competitive inhibition binding assay, 125I-NDP-α-MSH, hMC5-R; details: 1 μM test compound; 0.4 nM 125I-NDP-α-MSH; hMC5-R membranes; mean of triplicates; results less than 0% reported as 0%
endpoint_name: Inhibition at 1 μM MC5-R

| compound | endpoint_name | test_value |
| --- | --- | --- |
| [2H]N[C@@H](Cc1ccccc1)C(=O)N1C2CC[C@H](COc3ccc4ccccc4c3)N2C(=O)[C@@H]1CCCCN (some centres unmarked) [Example 38] | Inhibition at 1 μM MC5-R | 1% |
| [2H]N[C@@H](Cc1cnc[nH]1)C(=O)N[C@@H](Cc1ccccc1)C(=O)N1C2CC[C@H](COc3ccc4ccccc4c3)N2C(=O)[C@@H]1CCCCN (some centres unmarked) [Example 42] | Inhibition at 1 μM MC5-R | 0% |
| [2H]N[C@@H](Cc1ccccc1)C(=O)N1C2CC[C@H](COc3ccccc3)N2C(=O)[C@@H]1CCCCN (some centres unmarked) [Example 36] | Inhibition at 1 μM MC5-R | 0% |
| C[C@@H]1CN(C(=O)[C@H](N)Cc2ccc(Cl)cc2)[C@@H](CCCNC(=N)N)CN1CCc1ccc2ccccc2c1 [Example 15] | Inhibition at 1 μM MC5-R | 34% |

Let's switch to this compound now.
Exercise: For the compound shown here, CCCCCCC(=O)N[C@@H](Cc1cnc[nH]1)C(=O)N[C@H](Cc1ccccc1)C(=O)N1C[C@H](OCc2ccccc2)C[C@H]1C(=O)NCCCNC(=N)N [Example 30] , give the reported Inhibition at 1 μM MC5-R.
Solution: 1%
